Assay: small molecules captured by biotinylated probe aFST – biochemical, small-molecule microarray, fluorescence 635/667, stem cell growth factor project, primary screen (AID 1086);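 also: score merges 667 nm fluorescence with signal-to-noise of each printed compound spot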
Conditions: higher = more signal
value-kind: composite z-score
When you answer, write just the number.

These solved cases illustrate the format of a correct answer.
[
  {
    "molecule": "COCCOC(=O)N1C(=O)[C@@]2(c3cc(C#CCNC(N)=O)ccc31)[C@H](C(N)=O)[C@H]1C(=O)O[C@H](c3ccccc3)[C@H](c3ccccc3)N1[C@@H]2c1ccccc1OCCO",
    "composite z-score": 0.931
  },
  {
    "molecule": "CCOC(=O)C[C@H]1[C@H](OC(=O)c2ccccc2-c2ccccc2)[C@@H](NC(=O)c2ccc3ccccc3n2)c2cc(OCCCO)ccc2N1C(=O)Cc1ccc(OC)cc1",
    "composite z-score": 0.311
  },
  {
    "molecule": "Cc1ccc(N2C(=O)c3ccccc3[C@@H](C(=O)NCCCN(C)C)[C@@H]2c2ccc(CO)cc2)nc1",
    "composite z-score": 0.282
  },
  {
    "molecule": "CC(C)N1CC=CC23O[C@@H]4C=CCCOC(=O)C4[C@H]2C(=O)N(CCCO)[C@@H]3C1=O (stereo partly specified)",
    "composite z-score": 0.002
  },
  {
    "molecule": "COC(=O)[C@@]1(Cc2ccc(F)cc2)[C@H]2c3cc(C(=O)N4CCCC4)n(Cc4ccc(C)c(F)c4F)c3C[C@H]2CN1C(=O)c1ccccc1",
    "composite z-score": 0.409
  },
  {
    "molecule": "CCOC(=O)C[C@H]1[C@H](OC(=O)c2ccccc2-c2ccccc2)[C@@H](NC(=O)c2ccc3ccccc3c2)c2cc(OCCCO)ccc2N1C(=O)c1ccccc1",
    "composite z-score": 0.0603
  },
  {
    "molecule": "N[C@@H](Cc1ccccc1)C(=O)NCc1cn(Cc2ccccc2)nn1",
    "composite z-score": 0.145
  },
  {
    "molecule": "CC(CO)N1C(=O)[C@@H]2[C@H]3C(=O)OCC=C[C@H]3OC23C=CCN(Cn2nnc4ccccc42)C(=O)[C@@H]13 (stereo partly specified)",
    "composite z-score": -0.391
  }
]

-- ask Dear colleague, please send me the reported composite z-score for [N-]=[N+]=Nc1ccccc1C[C@@]1(C(=O)N2CCOCC2)N=C(c2ccc(OCCCO)cc2)O[C@@H]1c1ccccc1 when you can.
-- reply 1.71

-- ask Dear colleague, please send me the reported composite z-score for CN(C)c1ccc(C(O)C2C=CC3C(=O)NC(=O)C3N2Nc2ccccn2)cc1 (stereo unspecified) when you can.
-- reply 0.995

-- ask Dear colleague, please send me the reported composite z-score for COC(=O)[C@]1(CCS(=O)(=O)c2ccccc2)N=C(c2ccc(OCCCO)cc2)O[C@@H]1c1ccccc1N=[N+]=[N-] when you can.
-- reply 1.15

-- ask Dear colleague, please send me the reported composite z-score for COC(=O)[C@@H]1N=C(c2ccc(OCCCO)cc2)O[C@@H]1C when you can.
-- reply 0.195

-- ask Dear colleague, please send me the reported composite z-score for CCOC(=O)C[C@H]1[C@H](OC(=O)c2cc3ccccc3oc2=O)[C@@H](NC(=O)c2ccc3ccccc3n2)c2cc(OCCCO)ccc2N1C(=O)Cc1ccc(OC)cc1 when you can.
-- reply 0.24

These data points were gathered from PubChem BioAssay.
